Each recorded value in this set is attributed to patent EP1117659B1.

IC50, UniProt P29317: measured values
Sequence (P29317 24-976, species assumed): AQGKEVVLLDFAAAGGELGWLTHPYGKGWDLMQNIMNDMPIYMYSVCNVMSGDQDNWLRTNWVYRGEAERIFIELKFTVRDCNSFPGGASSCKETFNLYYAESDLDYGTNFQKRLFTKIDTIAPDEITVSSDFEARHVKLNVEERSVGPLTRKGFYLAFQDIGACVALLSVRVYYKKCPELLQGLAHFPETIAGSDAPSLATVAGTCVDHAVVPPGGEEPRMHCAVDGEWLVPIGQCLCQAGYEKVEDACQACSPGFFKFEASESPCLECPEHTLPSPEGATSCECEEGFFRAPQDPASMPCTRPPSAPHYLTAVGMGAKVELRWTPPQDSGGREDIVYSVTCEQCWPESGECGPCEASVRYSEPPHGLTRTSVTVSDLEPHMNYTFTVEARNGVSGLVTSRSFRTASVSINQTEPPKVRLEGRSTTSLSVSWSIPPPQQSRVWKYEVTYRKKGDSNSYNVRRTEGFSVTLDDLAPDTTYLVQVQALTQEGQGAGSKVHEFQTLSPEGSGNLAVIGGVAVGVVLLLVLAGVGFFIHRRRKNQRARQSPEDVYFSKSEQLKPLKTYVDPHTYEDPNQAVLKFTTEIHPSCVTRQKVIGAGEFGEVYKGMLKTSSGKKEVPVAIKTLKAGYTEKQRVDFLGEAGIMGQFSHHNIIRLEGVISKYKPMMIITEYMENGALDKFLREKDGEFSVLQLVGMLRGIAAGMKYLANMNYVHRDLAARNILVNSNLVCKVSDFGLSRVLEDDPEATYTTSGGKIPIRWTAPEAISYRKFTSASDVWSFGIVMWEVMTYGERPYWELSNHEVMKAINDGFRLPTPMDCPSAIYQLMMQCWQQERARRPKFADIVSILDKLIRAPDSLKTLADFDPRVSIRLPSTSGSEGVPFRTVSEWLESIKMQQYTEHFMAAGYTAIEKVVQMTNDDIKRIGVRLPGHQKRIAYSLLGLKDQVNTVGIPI

Input: Please report the recorded IC50 for COc1ccc2ncc(C#N)c(Nc3ccc4nn[nH]c4c3)c2c1 .
Output: > 31.6 µM

Input: Dear colleague, I am looking for the recorded IC50 of the following molecule: COc1cc2ncc(C#N)c(Nc3ccc4[nH]ncc4c3)c2cc1OC
Output: > 2.9 µM

Input: What value of IC50 has been recorded for this entry: COc1cc2ncc(C#N)c(Nc3ccc4cn[nH]c4c3)c2cc1OC
Output: > 56.4 µM

Input: I would be grateful if you could share the reported IC50 for COc1cc2ncc(C#N)c(Nc3cccc4[nH]ccc34)c2cc1OC .
Output: 0.871 µM

Input: For the molecule shown here, CCOc1cc2ncc(C#N)c(Nc3ccc4c(c3)C(=O)NCC(=O)N4C)c2cc1OCC , give the reported IC50.
Output: > 44.9 µM

Input: Tell me the measured IC50 of COc1ccc2ncc(C#N)c(Nc3ccc4cn[nH]c4c3)c2c1 , please.
Output: > 31.7 µM

Input: # query: IC50 of entry CCOc1cc2c(Nc3ccc4cn[nH]c4c3)c(C#N)cnc2cc1OC
Output: > 27.9 µM

Input: Find the recorded IC50 belonging to CCOc1cc2ncc(C#N)c(Nc3ccc4c(c3)S(=O)(=O)C=C4)c2cc1OCC and report it.
Output: > 47.5 µM

Input: Entry COc1cc2ncc(C#N)c(Nc3ccc(O)c4ncccc34)c2cc1OC has what IC50?
Output: 0.537 µM
